Molecular target: farnesyl-protein transferase (FPTase) (Homo sapiens, UniProt P49354+P49356)
Test: in vitro FPTase inhibition, K-Ras as substrate for farnesylation
Type: biochemical
Details: K-Ras used as substrate for farnesylation
Assignment: determine reported IC50 for the given compounds.
Answers are plain numbers, in µM.

Hi, could you look up IC50 for each item in my list?
1. FC(F)(F)c1cccc(CN2C(=NCCCn3ccnc3)c3cccc4cccc2c34)c1
2. c1ccc(CCCN2C(=NCCCn3ccnc3)c3cccc4cccc2c34)cc1
3. N#CCCCCN1C(=NCCCn2ccnc2)c2cccc3cccc1c23
4. CCCCCCCCN(CCCn1ccnc1)C1=Nc2cccc3cccc1c23

Completion:
1. 8.5
2. 9.5
3. 4.8
4. 8
